# PROTOCOL DETAILS: folding enthalpy; higher = less favourable; fluorescence melt of hairpins on a sequencing array, two-state fit
# ASSAY CONDITIONS: sodium 0.088 M
REPORTED METRIC: folding enthalpy

GCCGACGAAAGTCAGGGC ((((((....)))..))) | -36.8 kcal/mol
GCATCCGGAAACGAATGC ((((.((....)).)))) | -44.1 kcal/mol
GCTTACGAAAGTAAGC ((((((....)))))) | -31.8 kcal/mol

Field: folding enthalpy. Fill in for each record below.
1. GGCGCCGGAAACAGCGCC (((((.(....).)))))
2. GGTGTCGGAAACGGTACC (((..((....))..)))
3. GTAAACGAAAGTTGTAC ((((((....))).)))
4. GCGGGGCGAAAGCTGCGC (((..((....))..)))
5. GCAAAGCGAAAGCCATGC (((..((....))..)))
6. GTGAGGACGAAAGTCCAC (((..(((....))))))
7. GTAACGGAAACGTTAC ((((((....))))))
8. GTGATCGAAAGATAACAC ((((((....)))..)))

Result:
-34.8 kcal/mol
-28.6 kcal/mol
-13.7 kcal/mol
-27.2 kcal/mol
-12.3 kcal/mol
-13.9 kcal/mol
-40.2 kcal/mol
-23.6 kcal/mol

Field: folding enthalpy. Fill in for each record below.
1. GTTAGCCGAAAGGCCAAC (((.(((....))).)))
2. GCTCTCGAAAGAGCAGC ((((((....))).)))
3. GGACCAGGAAACTGGTTC (.(((((....))))).)

Result:
["-16 kcal/mol", "-15.4 kcal/mol", "-24.6 kcal/mol"]

Field: folding enthalpy. Fill in for each record below.
1. GTCGTCGAAAGACCTGAC ((((((....)))..)))
2. GCGGTCGAAAGACCTCGC ((((((....)))..)))
3. GCTGTAGGAAACTGTAGC (((..((....))..)))
4. GTTGCTGGAAACAGTAGC (.(.(((....))).).)
5. GGGGCAGGAAACTGCTCC ((.((((....)))).))

Result:
-14.7 kcal/mol
-14.8 kcal/mol
-11.7 kcal/mol
-19.7 kcal/mol
-36.6 kcal/mol

Field: folding enthalpy. Fill in for each record below.
1. GTTAATCGAAAGATGAAC (((.(((....))).)))
2. GTACACACGAAAGTGTAC (((..(((....))))))
3. GATCAGGGGCCTGATC ((((((....))))))
4. GTTGACGAAAGTCGAAC ((((((....))).)))
5. GATCCTCGAAAGGATC ((((((....))))))
6. GTACGCGAAAGCGGTAC ((((((....))).)))
7. GACCCACGAAAGTGTGTC (((.(((....))).)))

Result:
["-25.1 kcal/mol", "-16.6 kcal/mol", "-33.1 kcal/mol", "-18.4 kcal/mol", "-37.2 kcal/mol", "-16.6 kcal/mol", "-27.4 kcal/mol"]

Field: folding enthalpy. Fill in for each record below.
1. GATCGCATGGGCGATC ((((((....))))))
2. GAATTTGGAAACAAGTTC (((.(((....))).)))
3. GATCAGAAACCTGATC ((((((....))))))
4. GATCGAGGGCTCGATC ((((((....))))))
5. GAATAGCGAAAGCTTTC (((.(((....))))))
6. GGATGCGGAAACGTGTCC (((..((....))..)))
7. GCAGGCGAAAGCCAATGC ((((((....)))..)))

Result:
1: -40.5 kcal/mol; 2: -28.8 kcal/mol; 3: -36.9 kcal/mol; 4: -46.3 kcal/mol; 5: -11.6 kcal/mol; 6: -34.9 kcal/mol; 7: -15.5 kcal/mol

Field: folding enthalpy. Fill in for each record below.
1. GAAGACGGAAACGTTTTC (((.(((....))).)))
2. GTGCTTCGAAAGAACAC (((.(((....))))))
3. GTCATAGAAATATGAC ((((((....))))))
4. GGTGATGAAAATCACC ((((((....))))))
5. GCGTTGCGAAAGCTAAGC ((.(.((....)).).))
6. GCGGTTAACCGC ((((....))))

Result:
-32.6 kcal/mol
-32.1 kcal/mol
-30.2 kcal/mol
-32.1 kcal/mol
-26.9 kcal/mol
-28.7 kcal/mol

Field: folding enthalpy. Fill in for each record below.
1. GATCGGGCGGCCGATC ((((((....))))))
2. GAGTATGGAAACACACTC ((((.((....)).))))

Result:
1. -57.9 kcal/mol
2. -24.9 kcal/mol

Field: folding enthalpy. Fill in for each record below.
1. GCCAGCGAAAGCTTAGGC ((((((....)))..)))
2. GTGTGTGGAAACATACGC (.((.((....)).)).)
3. GATCCTACGCAGGATC ((((((....))))))
4. CGCGGAACTGTCCGCG ((((((....))))))
5. GTAACGGGAAACCGCTAC (((.(((....))).)))
6. GCTATTCGAAAGAAGAGC (((.(((....))).)))

Result:
1: -27.3 kcal/mol; 2: -29.4 kcal/mol; 3: -35 kcal/mol; 4: -45.6 kcal/mol; 5: -24.4 kcal/mol; 6: -39.9 kcal/mol
